Tested on: Staphylococcus sp.
ASSAY NAME: In vitro antibacterial evaluation: minimum inhibitory concentration (MIC), broth dilution method
Format: cell-based
COND: Coagulase Negative Staphylococcus (GC 4549); broth dilution, 18 hours at 35° C.
Listing of entries alongside the reported MIC Coagulase Negative Staphylococcus (GC 4549).
Just the number in µg/mL, nothing appended.

The examples below pair each entry with its known result.
MOLECULE	REPORTED RESULT
CC(C)CC(=O)OC1C(O)C(CO)OC(OC2C(CO)OC(Oc3ccc(CC4NC(=O)C(C(C)c5cccs5)NC(=O)CNC(=O)C(CO)NC(=O)C(C(O)C5CNC(=N)N5C5OC(CO)C(O)C(O)C5O)NC(=O)C(C(O)C5CNC(=N)N5)NC4=O)cc3)C(O)C2O)C1O (stereo not drawn) [Example 265b]	4
CC(C)CCC(=O)OC1C(OC2C(CO)OC(Oc3ccc(CC4NC(=O)C(C(C)c5ccccc5)NC(=O)CNC(=O)C(CO)NC(=O)C(C(O)C5CNC(=N)N5C5OC(CO)C(O)C(O)C5O)NC(=O)C(C(O)C5CNC(=N)N5)NC4=O)cc3)C(O)C2O)OC(CO)C(O)C1O (stereo not drawn) [Example 270a]	2

For Staphylococcus sp., provide MIC Coagulase Negative Staphylococcus (GC 4549) of CC(C)CC(=O)OC1C(O)C(CO)OC(OC2C(CO)OC(Oc3ccc(CC4NC(=O)C(C(C)c5cccc(F)c5)NC(=O)CNC(=O)C(CO)NC(=O)C(C(O)C5CNC(=N)N5C5OC(CO)C(O)C(O)C5O)NC(=O)C(C(O)C5CNC(=N)N5)NC4=O)cc3)C(O)C2O)C1O (stereo not drawn) [Example 264b] please.
4

For Staphylococcus sp., provide MIC Coagulase Negative Staphylococcus (GC 4549) of CCC(C)C(=O)OC1C(CO)OC(OC2C(CO)OC(Oc3ccc(CC4NC(=O)C(C(C)c5ccccc5)NC(=O)CNC(=O)C(CO)NC(=O)C(C(O)C5CNC(=N)N5C5OC(CO)C(O)C(O)C5O)NC(=O)C(C(O)C5CNC(=N)N5)NC4=O)cc3)C(O)C2O)C(O)C1O (stereo not drawn) [Example 278c] please.
2

###

Tested on: Streptococcus sp.
ASSAY NAME: In vitro antibacterial evaluation: minimum inhibitory concentration (MIC), broth dilution method
Type: cell-based
COND: broth dilution, 18 hours at 35° C.
REPORTED PROPERTY: MIC Streptococcus pneumoniae (ATCC 6301)

For Streptococcus sp., provide MIC Streptococcus pneumoniae (ATCC 6301) of CC(c1ccccc1)C1NC(=O)CNC(=O)C(CO)NC(=O)C(C(O)C2CNC(=N)N2C2OC(CO)C(O)C(O)C2O)NC(=O)C(C(O)C2CNC(=N)N2)NC(=O)C(Cc2ccc3oc(=O)[nH]c3c2)NC1=O (stereo not shown) please.
8 µg/mL

###

Listing of entries alongside the reported MIC Streptococcus pyogenes (GC 4563).
Test system: Streptococcus sp.
ASSAY NAME: In vitro antibacterial evaluation: minimum inhibitory concentration (MIC), broth dilution method
Type: cell-based
COND: broth dilution, 5×10^5 CFU/mL, 18 hours at 35° C.
Just the number in µg/mL, nothing appended.

Please give the measured MIC Streptococcus pyogenes (GC 4563) for this molecule: CC(C)=CCCC1OCC2OC(OC3C(CO)OC(Oc4ccc(CC5NC(=O)C(C(C)c6ccccc6)NC(=O)CNC(=O)C(CO)NC(=O)C(C(O)C6CNC(=N)N6C6OC(CO)C(O)C(O)C6O)NC(=O)C(C(O)C6CNC(=N)N6)NC5=O)cc4)C(O)C3O)C(O)C(O)C2O1 (stereo not shown) [Example 123]
0.5

Recorded values, source patent US8247211B2.
